We begin with a simple list: items and their reported IC50.
- STUDY SYSTEM: PAF receptor (Oryctolagus cuniculus)
- TEST DESCRIPTION: Inhibition of PAF induced platelet aggregation in rabbit platelet rich plasma (PRP)
- Assay type: cell-based, rabbit (male New Zealand White)
- Design: immediately centrifuged at 800 rpm for 10 minutes at room temperature to recover the platelet rich plasma (PRP); endogenous in cells; host or cells: rabbit platelets in platelet rich plasma (male New Zealand White rabbits)
- STUDY CONDITIONS: IC50 (M) PRP, inhibition of PAF-induced platelet aggregation, PAF challenge 5E-8M; rabbit platelet rich plasma

| COMPOUND | UNIT SPEC | IC50 |
| --- | --- | --- |
| COC(COCc1ccc(OCc2ccccc2)cc1)COP(=O)([O-])Oc1cccc(C[n+]2ccsc2)c1 (centres unmarked) | M | 0.0004 |
| CCCCCCCCCCCCCCc1cccc(OCC(COP(=O)([O-])Oc2cccc(C[n+]3ccccc3)c2)OC)c1 (centres unmarked) | M | 4.1e-06 |
| COC(COCc1ccc(OCc2ccc(Cl)cc2)cc1)COP(=O)([O-])Oc1cccc(C[n+]2ccsc2)c1 (centres unmarked) | M | 3e-05 |
| CCCCCCCCCCCCCCc1cccc(OCC(COP(=O)([O-])Oc2cccc(C[S+](C)C)c2)OC)c1 (centres unmarked) | M | 3.4e-06 |
| CCCCCCCCCCOCCOCCOCC(COP(=O)([O-])Oc1cccc(C[n+]2csc(C)c2)c1)OC (centres unmarked) | M | 2.2e-06 |
| CCCCCCCCCCCCCCCCCC(=O)NCC(COCCCCCCCCCCCCCCCC)COP(=O)([O-])Oc1cccc(C[n+]2ccsc2)c1 (centres unmarked) | M | 4.8e-05 |
| CCCCCCCCCCCCCCCCCCNC(=O)OCC(COP(=O)([O-])Oc1cccc(C[N+](C)(C)C)c1)OC (centres unmarked) | M | 0.0001 |

* * *

- STUDY SYSTEM: PAF receptor (Oryctolagus cuniculus, UniProt G1TEI7)
- Sequence (G1TEI7 1-342): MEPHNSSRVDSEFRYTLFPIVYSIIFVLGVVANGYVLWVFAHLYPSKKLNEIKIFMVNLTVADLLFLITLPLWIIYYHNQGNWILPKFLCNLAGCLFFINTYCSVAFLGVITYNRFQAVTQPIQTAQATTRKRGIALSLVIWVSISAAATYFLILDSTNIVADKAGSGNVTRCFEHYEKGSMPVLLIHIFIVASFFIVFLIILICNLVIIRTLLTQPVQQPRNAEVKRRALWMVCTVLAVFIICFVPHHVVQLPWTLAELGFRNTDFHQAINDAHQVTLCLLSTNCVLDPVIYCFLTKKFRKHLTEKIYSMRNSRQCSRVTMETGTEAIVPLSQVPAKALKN
- TEST DESCRIPTION: Inhibition of PAF induced platelet aggregation in rabbit platelet rich plasma (PRP)
- Assay type: cell-based, rabbit (male New Zealand White)
- Design: immediately centrifuged at 800 rpm for 10 minutes at room temperature to recover the platelet rich plasma (PRP); endogenous in cells; host or cells: rabbit platelets in platelet rich plasma (male New Zealand White rabbits)
- STUDY CONDITIONS: IC50 (M) PRP, inhibition of PAF-induced platelet aggregation, PAF challenge 1E-6M; rabbit platelet rich plasma
We begin with a simple list: items and their reported IC50.

| MOLECULE | STUDY SYSTEM | IC50, M |
| --- | --- | --- |
| CCCCCCCCCCOCCOCCOCC(COP(=O)([O-])Oc1cccc(C[n+]2csc(C)c2)c1)OC (stereo not shown) | PAF receptor (Oryctolagus cuniculus, UniProt G1TEI7) | 9.4e-05 |
| C=C(C)COC(COCCCCCCCCCCCCCCCC)COP(=O)([O-])Oc1cccc(C[n+]2ccsc2)c1 (stereo not shown) | PAF receptor (Oryctolagus cuniculus, UniProt G1TEI7) | 3.9e-05 |
| CCCCCCCCCCCCOc1cccc(OCC(COP(=O)([O-])Oc2cccc(C[n+]3csc(C)c3)c2)OC)c1C (stereo not shown) | PAF receptor (Oryctolagus cuniculus, UniProt G1TEI7) | 3e-05 |
| CCCCCCCCCCCCCCCCOCC(COP(=O)([O-])Oc1cccc(C[n+]2csc(C)c2)c1)OC (stereo not shown) | PAF receptor (Oryctolagus cuniculus, UniProt G1TEI7) | 1.2e-05 |
| CCCCCCCCCCCCOc1cccc(OCC(COP(=O)([O-])Oc2cccc(C[n+]3ccsc3)c2)OC)c1C (stereo not shown) | PAF receptor (Oryctolagus cuniculus, UniProt G1TEI7) | 2.4e-05 |
| CCCCCCCCCCCCCCCCOCC(COP(=O)([O-])Oc1cccc(C[n+]2ccccc2)c1)OC (stereo not shown) | PAF receptor (Oryctolagus cuniculus, UniProt G1TEI7) | 0.00018 |
| CCCCCCCCCCCCCCc1cccc(OCC(COP(=O)([O-])Oc2cccc(C[n+]3ccsc3)c2)OC)c1 (stereo not shown) | PAF receptor (Oryctolagus cuniculus, UniProt G1TEI7) | 4e-06 |
| CCCCCCCCCCCCCCCCCCNC(=O)OCC(COP(=O)([O-])Oc1ccccc1C[n+]1ccsc1)OC (stereo not shown) | PAF receptor (Oryctolagus cuniculus, UniProt G1TEI7) | 2.5e-05 |
| CCCCCCCCCCCCCCc1cccc(OCC(COP(=O)([O-])Oc2cccc(C[n+]3ccccc3)c2)OC)c1 (stereo not shown) | PAF receptor (Oryctolagus cuniculus, UniProt G1TEI7) | 5.3e-05 |
| CCCCCCCCCCCCCCCCOCC(COP(=O)([O-])Oc1cccc(C[n+]2ccsc2)c1)OC (stereo not shown) | PAF receptor (Oryctolagus cuniculus, UniProt G1TEI7) | 4.7e-05 |

* * *

- STUDY SYSTEM: PAF receptor (Oryctolagus cuniculus, UniProt G1TEI7)
- TEST DESCRIPTION: Inhibition of PAF induced platelet aggregation in rabbit platelet rich plasma (PRP)
- Format: cell-based, rabbit (male New Zealand White)
- Parameters: immediately centrifuged at 800 rpm for 10 minutes at room temperature to recover the platelet rich plasma (PRP); endogenous in cells; host or cells: rabbit platelets in platelet rich plasma (male New Zealand White rabbits)
- Method: Platelet activating factor (PAF) compounds were evaluated as PAF receptor antagonists in vitro by measuring inhibition of PAF induced platelet aggregation. Platelet aggregation was measured by a modification of the method of A. Wissner, et. al., J. Med. Chem., 27, 1174, 1984. […] Dilutions (1:3000) Of PRP in Isoton diluent were made and platelet counts were determined on a Coulter Thrombocounter which was standardized with platelet reference standards (Interscience Platelet Control, Portland, Oreg.). […]
pKi: −log10 of the molar value.
ENDPOINT NAME: pKi

| COMPOUND | EXPERIMENTAL VALUE |
| --- | --- |
| CCCCCCCCCCCCCCCCOCC(COP(=O)([O-])Oc1cccc(C[n+]2csc(C)c2)c1)OC (centres unmarked) | 6.68 |
| CCCCCCCCCCCCCCCCOCC(COP(=O)([O-])Oc1cccc(C[n+]2ccsc2)c1)OC (centres unmarked) | 6.31 |
| CCCCCCCCCCCCCCCCCCNC(=O)OCC(COP(=O)([O-])Oc1ccccc1C[n+]1ccsc1)OC (centres unmarked) | 6.51 |
| CCCCCCCCCCCCOc1cccc(OCC(COP(=O)([O-])Oc2cccc(C[n+]3ccsc3)c2)OC)c1C (centres unmarked) | 6.29 |
| CCCCCCCCCCCCCCc1cccc(OCC(COP(=O)([O-])Oc2cccc(C[n+]3ccsc3)c2)OC)c1 (centres unmarked) | 6.68 |

* * *

- STUDY SYSTEM: PAF receptor (Oryctolagus cuniculus)
- TEST DESCRIPTION: Inhibition of PAF induced platelet aggregation in rabbit platelet rich plasma (PRP)
- Assay type: cell-based, rabbit (male New Zealand White)
- Parameters: immediately centrifuged at 800 rpm for 10 minutes at room temperature to recover the platelet rich plasma (PRP); endogenous in cells; host or cells: rabbit platelets in platelet rich plasma (male New Zealand White rabbits)
- STUDY CONDITIONS: PAF challenge 1E-6M; rabbit platelet rich plasma; read-out: IC50 (M) PRP, inhibition of PAF-induced platelet aggregation

| COMPOUND | STUDY SYSTEM | IC50 [M] |
| --- | --- | --- |
| CCCCCCCCCCCCCCCCOCC(COCc1cccc(C[n+]2ccsc2)c1)OC (centres unmarked) | PAF receptor (Oryctolagus cuniculus) | 2.6e-05 |
| CCCCCCCCCCCCCCCCOCC(COC(=O)c1cccc(C[n+]2ccsc2)c1)OC (centres unmarked) | PAF receptor (Oryctolagus cuniculus) | 4.9e-05 |

* * *

- STUDY SYSTEM: PAF receptor (Oryctolagus cuniculus)
- TEST DESCRIPTION: Inhibition of PAF induced platelet aggregation in rabbit platelet rich plasma (PRP)
- Type: cell-based, rabbit (male New Zealand White)
- Set-up: immediately centrifuged at 800 rpm for 10 minutes at room temperature to recover the platelet rich plasma (PRP); endogenous in cells; host or cells: rabbit platelets in platelet rich plasma (male New Zealand White rabbits)
- STUDY CONDITIONS: IC50 (M) PRP, inhibition of PAF-induced platelet aggregation, PAF challenge 1E-7M; rabbit platelet rich plasma

| COMPOUND | STUDY SYSTEM | IC50 (M) |
| --- | --- | --- |
| CCCCCCCCCCOCCOCCOCC(COP(=O)([O-])Oc1cccc(C[n+]2csc(C)c2)c1)OC (stereo not drawn) | PAF receptor (Oryctolagus cuniculus) | 3.9e-06 |
| CCCCCCCCCCCCCCc1cccc(OCC(COP(=O)([O-])Oc2cccc(C[S+](C)C)c2)OC)c1 (stereo not drawn) | PAF receptor (Oryctolagus cuniculus) | 2.9e-05 |
| C=C(C)COC(COCCCCCCCCCCCCCCCC)COP(=O)([O-])Oc1cccc(C[n+]2ccsc2)c1 (stereo not drawn) | PAF receptor (Oryctolagus cuniculus) | 2.6e-06 |
| CCCCCCCCCCCCCCCCCC(=O)NCC(COCCCCCCCCCCCCCCCC)COP(=O)([O-])Oc1cccc(C[n+]2ccsc2)c1 (stereo not drawn) | PAF receptor (Oryctolagus cuniculus) | 0.00013 |
| CCCCCCCCCCCCOc1cccc(OCC(COP(=O)([O-])Oc2cccc(C[n+]3csc(C)c3)c2)OC)c1C (stereo not drawn) | PAF receptor (Oryctolagus cuniculus) | 2e-06 |
| CCCCCCCCCCCCCCc1cccc(OCC(COP(=O)([O-])Oc2cccc(C[n+]3ccccc3)c2)OC)c1 (stereo not drawn) | PAF receptor (Oryctolagus cuniculus) | 5.4e-06 |
| CCCCCCCCCCCCOc1cccc(OCC(COP(=O)([O-])Oc2cccc(C[n+]3ccsc3)c2)OC)c1C (stereo not drawn) | PAF receptor (Oryctolagus cuniculus) | 1.9e-06 |
| CCCCCCCCCCCCCCCCCCNC(=O)OCC(COP(=O)([O-])Oc1ccccc1C[n+]1ccsc1)OC (stereo not drawn) | PAF receptor (Oryctolagus cuniculus) | 1.4e-06 |
| C=C(C)COC(COCCCCCCCCCCCCCCCC)COP(=O)([O-])Oc1cccc(C[N+](C)(C)C)c1 (stereo not drawn) | PAF receptor (Oryctolagus cuniculus) | 4.8e-05 |
| COC(COCCCCCCCCOc1ccc(-c2ccccc2)cc1)COP(=O)([O-])Oc1cccc(C[n+]2ccsc2)c1 (stereo not drawn) | PAF receptor (Oryctolagus cuniculus) | 2.3e-06 |
| CCCCCCCCCCCCCCCCOCC(COP(=O)([O-])Oc1cccc(C[n+]2ccsc2)c1)OC (stereo not drawn) | PAF receptor (Oryctolagus cuniculus) | 1e-06 |
| CCCCCCCCCCCCOc1cccc(OCC(COP(=O)([O-])Oc2cccc(C[n+]3cccc4ccccc43)c2)OC)c1C (stereo not drawn) | PAF receptor (Oryctolagus cuniculus) | 1.2e-05 |
| CCCCCCCCCCCCCCc1cccc(OCC(COP(=O)([O-])Oc2cccc(C[n+]3ccsc3)c2)OC)c1 (stereo not drawn) | PAF receptor (Oryctolagus cuniculus) | 9.5e-07 |
| CCCCCCCCCCCCCCCCOCC(COP(=O)([O-])Oc1cccc(C[n+]2ccccc2)c1)OC (stereo not drawn) | PAF receptor (Oryctolagus cuniculus) | 1e-05 |
| CCCCCCCCCCCCCCCCOCC(COP(=O)([O-])Oc1cccc(C[n+]2csc(C)c2)c1)OC (stereo not drawn) | PAF receptor (Oryctolagus cuniculus) | 7.1e-07 |
